Below, each of the molecules is paired with its reported CC50 at 5 days value.
- assay_method_text: in vitro
- run_parameters: human, uninfected MT-4 cells
Dear colleague, please return just the value in µM, with no unit written.

Record excerpt, results attached:
- molecule: "CC1=NO[C@@]2(CC[C@H](C)N3C[C@H]2n2cc(C(=O)NCc4ccc(F)cc4F)c(=O)c(OCOC(=O)O[C@@H](C)[C@H](C)OP(=O)(O)O)c2C3=O)C1"
  metric: "CC50 at 5 days"
  value_reported: 28.9
- molecule: "CC1=NO[C@@]2(CC[C@H](C)N3C[C@H]2n2cc(C(=O)NCc4ccc(F)cc4F)c(=O)c(OC(C)OC(=O)OCCOP(=O)(O)O)c2C3=O)C1 (some centres unmarked)"
  metric: "CC50 at 5 days"
  value_reported: 10.6
- molecule: "CC[C@H](COC(=O)OCOc1c2n(cc(C(=O)NCc3ccc(F)cc3F)c1=O)[C@@H]1CN(C2=O)[C@@H](C)CC[C@]12CC(C)=NO2)OP(=O)(O)O"
  metric: "CC50 at 5 days"
  value_reported: 13.6

Task item: Consider the molecule `CC1=NO[C@@]2(CC[C@H](C)N3C[C@H]2n2cc(C(=O)NCc4ccc(F)cc4F)c(=O)c(OC(=O)OC[C@H](C)OP(=O)(O)O)c2C3=O)C1` and give its measured CC50 at 5 days.
Reply: 16.1

Task item: Try the molecule `COC1=NO[C@@]2(CC[C@H](C)N3C[C@H]2n2cc(C(=O)NCc4ccc(F)cc4F)c(=O)c(OCOC(=O)O[C@H](C)COP(=O)(O)O)c2C3=O)C1`
Reply: 15.5

* * *

- assay_method_text: in vitro
- run_parameters: human, uninfected MT-4 cells
metric: CC50 at 5 days (µM)
# unit: µM | format: bare number

- structure_smiles: "CC1=NO[C@@]2(CC[C@H](C)N3C[C@H]2n2cc(C(=O)NCc4ccc(F)cc4F)c(=O)c(OCOC(=O)O[C@@H](C)C[C@H](C)OP(=O)(O)O)c2C3=O)C1"
  readout_units: "µM"
  CC50 at 5 days: 10.3
- structure_smiles: "CC1=NO[C@@]2(CC[C@H](C)N3C[C@H]2n2cc(C(=O)NCc4ccc(F)cc4F)c(=O)c(OCOC(=O)O[C@@H](C)COP(=O)(O)O)c2C3=O)C1"
  readout_units: "µM"
  CC50 at 5 days: 12.2
- structure_smiles: "CC1=NO[C@@]2(CC[C@H](C)N3C[C@H]2n2cc(C(=O)NCc4ccc(F)cc4F)c(=O)c(OC(=O)C(C)(C)CCN(CC(=O)O)C(=O)OCOP(=O)(O)O)c2C3=O)C1"
  readout_units: "µM"
  CC50 at 5 days: 12.3
- structure_smiles: "CC[C@H](OP(=O)(O)O)[C@@H](C)OC(=O)OCOc1c2n(cc(C(=O)NCc3ccc(F)cc3F)c1=O)[C@@H]1CN(C2=O)[C@@H](C)CC[C@]12CC(C)=NO2"
  readout_units: "µM"
  CC50 at 5 days: 37
- structure_smiles: "CC[C@@H](OP(=O)(O)O)[C@@H](C)OC(=O)OCOc1c2n(cc(C(=O)NCc3ccc(F)cc3F)c1=O)[C@@H]1CN(C2=O)[C@@H](C)CC[C@]12CC(C)=NO2"
  readout_units: "µM"
  CC50 at 5 days: 24.8
- structure_smiles: "CC[C@H](OP(=O)(O)O)[C@H](C)OC(=O)OCOc1c2n(cc(C(=O)NCc3ccc(F)cc3F)c1=O)[C@@H]1CN(C2=O)[C@@H](C)CC[C@]12CC(OC)=NO2"
  readout_units: "µM"
  CC50 at 5 days: 26.6

Alright, here's another compound for you.
Task item: Dear colleague, I am looking for the recorded CC50 at 5 days of the following compound: `CC[C@@H](COC(=O)OCOc1c2n(cc(C(=O)NCc3ccc(F)cc3F)c1=O)[C@@H]1CN(C2=O)[C@@H](C)CC[C@]12CC(C)=NO2)OP(=O)(O)O`
Reply: 12.8

Where do the numbers come from? From patent US20250120989A1.
